Numbers sourced from the supplement of paper PMC10567573.

test: protein stability index of a GFP-peptide fusion (GPS, HEK-293T) (PSI 1-6); higher = more stable; details: treatment: DMSO; c terminus: a fixed tail appended;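 further: 24-mer peptide tiles fused after GFP, lentivirally expressed, FACS-sorted into six equal bins by GFP/DsRed ratio, decoded by Illumina sequencing, PSI is the read-weighted mean bin number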

{"sequence-code": "RVVHWYFKLLDKNSSGDIGKKEIK [SMOC2]", "protein stability index": 2.46}
{"sequence-code": "ITEKIDVAFVDRADIKQYIGPPSA [TRIP13]", "protein stability index": 3.6}
{"sequence-code": "TLTWDSGNPEPVSYYIIQHKPKNS [PTPRD]", "protein stability index": 2.69}
{"sequence-code": "AQSRLEDPGADSEKSTVVEGGEVR [DLX1]", "protein stability index": 5.42}
{"sequence-code": "LCKNCFYLSNARPDNWFCYPCIPN [ZMYND11]", "protein stability index": 2.2}
{"sequence-code": "EVVTPDNMCMGRTSRGKLGGQDSF [ETS1]", "protein stability index": 3.71}
{"sequence-code": "MDGRMEAATRGGSHLQAAAQTPPR [SCNN1D]", "protein stability index": 4.92}
{"sequence-code": "PGKETLESALIALDSEKPKKLRFH [EHMT1]", "protein stability index": 4.06}
{"sequence-code": "MSHAAEPARDGVEASAEGPRAVFV [TFE3]", "protein stability index": 4.62}
{"sequence-code": "RSLNVFVKEDDKLIFHRHPVAQST [SPSB1]", "protein stability index": 3.15}
{"sequence-code": "NENPNNFQILLLSDPSTIEASNFQ [PNLIPRP1]", "protein stability index": 3.33}
{"sequence-code": "KSLDNMPNDEHWKALSRKSTSFRV [FBXO33]", "protein stability index": 3.4}
{"sequence-code": "RVQKTSKELEDMNQKLFDLRGKFK [TNNI2]", "protein stability index": 3.94}

###

assay: protein stability index of a GFP-peptide fusion (GPS, HEK-293T) (PSI 1-6); higher = more stable; settings: treatment: MLN4924 1 uM, 8 h; c terminus: a fixed tail appended
Recorded protein stability index by entry

{"sequence-code": "KPLLGSAVLGLLLVLAAVVAWCYY [MYORG]", "protein stability index": 2.25}
{"sequence-code": "KSLDNMPNDEHWKALSRKSTSFRV [FBXO33]", "protein stability index": 3.56}
{"sequence-code": "TVNALEIELQAQHSMRNSLESTLA [KRT36]", "protein stability index": 3.38}
{"sequence-code": "FQSRLPYQYLHYALFKANRLEKAV [P3H4]", "protein stability index": 2.31}
{"sequence-code": "QARKRQEEREKEAAEQAERSQSSI [SMARCE1]", "protein stability index": 5.7}
{"sequence-code": "NDTAGPELPDPLGGLLDEAMLDEI [NFE2L1]", "protein stability index": 5.6}
{"sequence-code": "LWHLAITDRSFNIVDIKPANMEDL [PPP2R2C]", "protein stability index": 2.41}
{"sequence-code": "AAGGDGELGSPLRRSISSSRSENV [PSD2]", "protein stability index": 5.1}
{"sequence-code": "KNKPKKMGHIKPDLIDVDLIRGST [PHTF1]", "protein stability index": 4.04}
{"sequence-code": "NEIQCTGNEKSIIDCKFNAESQGC [LOXL2]", "protein stability index": 4.79}
{"sequence-code": "LQSGQEYVFFVLAVMEHAESKMYA [PTPRD]", "protein stability index": 2.51}
{"sequence-code": "AYSGNTSNLSYHLEKNHPEEFCEF [ZBED1]", "protein stability index": 3.55}
{"sequence-code": "GKTWKQICDKHWTAKNSRVVCGMF [LOXL2]", "protein stability index": 2.18}
{"sequence-code": "KASNSIISCFNNAPPAKLACPVCS [FAN1]", "protein stability index": 3.1}
{"sequence-code": "PVLHPSEERAAPVLSCEAATQTER [FAM189A2]", "protein stability index": 5.44}
{"sequence-code": "SDTIPYLKKFLYNFDNPWNFQNIP [MIA2]", "protein stability index": 2.5}
{"sequence-code": "HRPSLNSVSLQINCQSVAQMNLLQ [DLC1]", "protein stability index": 2.52}
{"sequence-code": "FTETNNHWPQGPTGPPGPPGPMGP [EMID1]", "protein stability index": 3.4}
{"sequence-code": "MDGRMEAATRGGSHLQAAAQTPPR [SCNN1D]", "protein stability index": 4.93}
{"sequence-code": "DGAWCAGRNDLQQWIEVDARRLTR [CPXM2]", "protein stability index": 3.95}
{"sequence-code": "SLGVPGSVGGVPGGTGSGDGNKIF [ZBTB22]", "protein stability index": 4.3}
{"sequence-code": "IIRLVRVFRIFKLSRHSKGLQILG [KCNA4]", "protein stability index": 2.3}
{"sequence-code": "ATDNYDIGFGVYFEWTDSPNTAVS [ACBD3]", "protein stability index": 2.25}
{"sequence-code": "EFIMPDSAVVGDVLVLTKPLGTQV [SEPHS2]", "protein stability index": 2.54}
{"sequence-code": "YAVENEHMNRLQSQRAMLLQGTES [VTI1B]", "protein stability index": 4.1}
{"sequence-code": "LSDNATAFSNRSKQLRRQMWWRGC [VAMP4]", "protein stability index": 2.67}
{"sequence-code": "EKDNSRRMLTDKEREMAEIRDQMQ [LMNB1]", "protein stability index": 5.32}
{"sequence-code": "RAGEQRKRSQSMKSYPSSELRNMC [CLCN6]", "protein stability index": 4.37}
{"sequence-code": "ICARACNTTLTQYQLLATHVPTVW [RHOBTB1]", "protein stability index": 2.43}
{"sequence-code": "MAPPAAPGRDRVGREDEDGWETRG [HES6]", "protein stability index": 5.48}
{"sequence-code": "WDKEPWFWHDTLTEQLWRIFAGVH [TLE6]", "protein stability index": 2.22}
{"sequence-code": "MKLEKEEFVTLKAIALANSDSMHI [ESRRG]", "protein stability index": 2.48}
{"sequence-code": "LLPYFYIIYMAILLTHRCLRDEHR [DHCR7]", "protein stability index": 3.05}
{"sequence-code": "SFQNMNSKRKAETWKKNRRQLAYS [STK38L]", "protein stability index": 3.33}
{"sequence-code": "FQEPDSPLPPARSPTEPGPERRRS [WEE1]", "protein stability index": 5.31}
{"sequence-code": "DSFLVALDMDDGTLSFIVDGQYMG [SPSB1]", "protein stability index": 2.74}
{"sequence-code": "SVVCRELGFGSAKEAVTGSRLGQG [LOXL2]", "protein stability index": 4.12}
{"sequence-code": "IWKLNLQTFQWVKLPATMPEPVYF [KLHDC10]", "protein stability index": 2.63}
{"sequence-code": "TTPIEEVKGLFKSENCPKVISCEF [LARP4]", "protein stability index": 2.82}
{"sequence-code": "LGSWLVPFAYLTVLDLSKSLSAAL [POMT2]", "protein stability index": 3.34}
{"sequence-code": "PEPWPGGCTGDEAESRGHSKGWGR [MYCL]", "protein stability index": 4.46}
{"sequence-code": "NYVAKNFAQALGCVLYACFILGRL [SOAT2]", "protein stability index": 2.85}
{"sequence-code": "FKNSLLQKELKKAQMAKAAAEERA [WEE1]", "protein stability index": 4.34}
{"sequence-code": "QLQSLCRGLGLGGRRLKSPQAPDP [FANCE]", "protein stability index": 3.16}
{"sequence-code": "VRNLQSEVEGVKNIMTQNVERILA [VAMP8]", "protein stability index": 2.96}
{"sequence-code": "RPQGPQLRQQQHKQNKQVLGYCLL [DNAJC4]", "protein stability index": 2.38}
{"sequence-code": "ASFRVTTGTSNTTAIKSIEFARKG [RBBP5]", "protein stability index": 3.86}
{"sequence-code": "MYSEIQRERADIGGLMARPEYREW [FAM107A]", "protein stability index": 2.92}
{"sequence-code": "TNLPIFKLKESTVRRRYSDFEWLR [SNX3]", "protein stability index": 2.53}
{"sequence-code": "SMVDLTSVTLEDVTPKKSPPPKTN [FAN1]", "protein stability index": 4.9}
{"sequence-code": "ENWVCLSCYQVYCGRYINGHMLQH [HDAC6]", "protein stability index": 2.54}
{"sequence-code": "YDFDTQYAFVGDYSGQITLLKLEQ [WDFY1]", "protein stability index": 2.33}
{"sequence-code": "AGGIRESKESSKEKKLTVRQDLED [C22orf31]", "protein stability index": 5.48}

###

Listing of recorded protein stability index by entry.
assay: protein stability index of a GFP-peptide fusion (GPS, HEK-293T) (PSI 1-6); higher = more stable; settings: treatment: MLN4924 1 uM, 8 h; c terminus: a fixed tail appended
attribute-measured: protein stability index

{"sequence-code": "FLRCVTAALIYFAISITAIAKYSD [CMTM3]", "reported-value": 3.43}
{"sequence-code": "LLVQDATPVSNSLLPEKAFSDIPS [GFOD1]", "reported-value": 3.37}
{"sequence-code": "NKPGCEHECVNMEESYYCRCHRGY [MATN2]", "reported-value": 4.24}
{"sequence-code": "GAPEDDEEDDGRGRGLLRWDSFSA [DENND6A]", "reported-value": 4.98}
{"sequence-code": "FLANLHITALLNVSRRTSEACMTH [DUSP5]", "reported-value": 3.48}
{"sequence-code": "SDLLSEFKKHDADKVGLITLSDWA [PPEF2]", "reported-value": 3.44}
{"sequence-code": "VSYRGAWWYRNCHYANLNGLYGST [TNXB]", "reported-value": 2.26}
{"sequence-code": "SISEKLSSTNFAMKRDVQEGQARC [C8orf76]", "reported-value": 4.29}
{"sequence-code": "CDYCDRSFQDNLHNRKKHLNGLQH [ZMAT5]", "reported-value": 3.11}
{"sequence-code": "VLREDQIPRGFPTIDMGPQLKVVE [PTPRD]", "reported-value": 3.34}
{"sequence-code": "VNNYTNSFGGEWSAPDTMKRYSMY [TRIM29]", "reported-value": 2.62}
{"sequence-code": "ACTMDQARGLDDAAARGGQCPGLG [ZBED3]", "reported-value": 4.51}
{"sequence-code": "PSALFSKIRRGQFCIPEHISPKAR [TRIB1]", "reported-value": 3.06}
{"sequence-code": "DDGRLLEYDTVTREVKVLLDQLRF [APMAP]", "reported-value": 3.05}
{"sequence-code": "KEEKQRRRCKPKKPTRRDASPESP [GNAS]", "reported-value": 5.47}
{"sequence-code": "SHAAPGPSPDSWVPRPGTPQSPPS [FCHO1]", "reported-value": 5.05}
{"sequence-code": "KLQYQLRNVRERIAKNLVEKGILT [GOLPH3L]", "reported-value": 2.28}
{"sequence-code": "DFGSNCRFSHMSERDLQELSIQVE [ZMAT5]", "reported-value": 2.91}
{"sequence-code": "FLVGLLFVQRSGNYFVTMFDDYSA [SLC6A17]", "reported-value": 3.27}
{"sequence-code": "SSEASQLEDAAGGDSASEEKSGSA [FBXO34]", "reported-value": 5.55}
{"sequence-code": "FLDLFRYRVLLGHTLILMFIWFVC [SLC22A15]", "reported-value": 2.85}
{"sequence-code": "LHTAREFSEEDEEETTSQDWGTPR [RTN2]", "reported-value": 5.46}
{"sequence-code": "PLLLSHTLQELLARDTVQVELIPE [SNX8]", "reported-value": 2.73}
{"sequence-code": "PPQPCATACKPVIRVPSVPPVPCV [KRT36]", "reported-value": 2.91}
{"sequence-code": "NKYMVTDGAAYIGNFDWVGNDFTQ [PLD5]", "reported-value": 2.62}
{"sequence-code": "PITRKAAQLYTLWVTFQVLLYTSL [DHCR7]", "reported-value": 2.56}
{"sequence-code": "MAPDPVAAETAAQGPTPRYFTWDE [FADS1]", "reported-value": 4.83}
